Target: T1, recombinant human PD-L1-His protein (Origincell Therapeutics Co., Ltd.) (human, UniProt Q9NZQ7 19-238, limits assumed)
T1 construct: not shown: His tag
T1 sequence (Q9NZQ7 19-238 limits assumed): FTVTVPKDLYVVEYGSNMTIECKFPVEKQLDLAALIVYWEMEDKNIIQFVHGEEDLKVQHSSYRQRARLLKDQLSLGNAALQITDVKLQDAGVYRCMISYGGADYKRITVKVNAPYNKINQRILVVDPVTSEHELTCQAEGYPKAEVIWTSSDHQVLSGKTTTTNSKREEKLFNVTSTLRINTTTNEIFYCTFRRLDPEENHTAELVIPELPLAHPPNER
Test: BLI (Octet RED384), antibody on AHC sensor, PD-L1-His in solution
MEASURED ATTRIBUTE: kon (M⁻¹ s⁻¹)
Form entry: value (M⁻¹ s⁻¹) — number only.

Requested read-out: kon. Entry: PD-L1 antibody YN-039 (antibody, human IgG1, lambda, V domains shown, full-length IgG1,lambda) VH: QVQLVQSGAEVKKPGSSVKVSCKASRGPFSTYAISWVRQAPGQGLEWMGRIIPILGIANYAQKFQGRVTITADKSTSTAYMELSSLRSEDTAVYYCARTMGEYSYGNYDYWGQGTLVTVSS VL: QSALTQPASVSGSPGQSITISCTGTVSDVGGYNEVSWYQQHPGKAPKLMIYENSIRPSGVSHRFSGSKSGNTASLTISGLQAEDEADYYCQSYDSSLSGTVFGGGTKLTVLG
356000

Ok, now PD-L1 antibody YN-038 (antibody, human IgG1, lambda, V domains shown, full-length IgG1,lambda) VH: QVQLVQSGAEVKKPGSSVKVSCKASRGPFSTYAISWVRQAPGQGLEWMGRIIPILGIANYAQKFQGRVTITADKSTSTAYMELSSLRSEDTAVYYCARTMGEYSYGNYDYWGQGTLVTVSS VL: QSALTQPASVSGSPGQSITISCTGTRSDVGGYNEVSWYQQHPGKAPKLMIYENSIRPSGVSHRFSGSKSGNTASLTISGLQAEDEADYYCQSYDSSLSGTVFGGGTKLTVLG
350000

What about PD-L1 antibody YN-035 (antibody, human IgG1, lambda, V domains shown, full-length IgG1,lambda) VH: QVQLVQSGAEVKKPGSSVKVSCKASRGPFSTYAISWVRQAPGQGLEWMGRIIPILGIANYAQKFQGRVTITADKSTSTAYMELSSLRSEDTAVYYCARTMEGYGFGNFDYWGQGTLVTVSS VL: QSALTQPASVSGSPGQSITISCTGTVSEVGGYNEVSWYQQHPGKAPKLMIYGNSNRPSGVSNRFSGSKSGNTASLTISGLQAEDEADYYCQSYDSSLSGTVFGGGTKLTVLG ?
427000

Record: PD-L1 antibody YN-036 (antibody, human IgG1, lambda, V domains shown, full-length IgG1,lambda) VH: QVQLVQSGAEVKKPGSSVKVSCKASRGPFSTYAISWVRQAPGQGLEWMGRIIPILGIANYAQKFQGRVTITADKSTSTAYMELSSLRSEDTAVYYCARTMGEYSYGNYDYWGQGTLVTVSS VL: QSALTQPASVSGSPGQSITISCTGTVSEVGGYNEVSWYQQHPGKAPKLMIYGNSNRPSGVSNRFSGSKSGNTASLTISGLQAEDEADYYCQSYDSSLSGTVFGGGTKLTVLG
369000

Request: PD-L1 antibody YN-037 (antibody, human IgG1, lambda, V domains shown, full-length IgG1,lambda) VH: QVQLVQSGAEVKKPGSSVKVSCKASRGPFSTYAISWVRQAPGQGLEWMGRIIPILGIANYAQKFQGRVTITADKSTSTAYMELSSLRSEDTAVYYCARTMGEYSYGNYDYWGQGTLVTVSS VL: QSALTQPASVSGSPGQSITISCTGTSSSVGGYREVSWYQQHPGKAPKLMIYENSIRPSGVSHRFSGSKSGNTASLTISGLQAEDEADYYCQSYDSSLSGTVFGGGTKLTVLG
355000
